meta.source: patent US20030068675

Biological target: T1, ZFP SBS#277 (synthetic)
T1 chain: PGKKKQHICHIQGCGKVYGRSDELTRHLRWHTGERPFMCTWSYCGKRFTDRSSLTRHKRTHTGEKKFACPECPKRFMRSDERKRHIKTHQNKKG
Test: EMSA
Conditions: tags: MBP fusion
measurement name: pKd
In plain terms, pKd is the concentration in mol/L turned into minus its base-10 logarithm.

Name the reported pKd value associated with the binder GCGGCCGCG (dsDNA) DNA 1: GCGGCCGCG DNA 2: CGCGGCCGC
6.97
